TARGET DESC: hCRTH2 (Homo sapiens, UniProt Q9Y5Y4)
Construct: expressed in transfected cells; host or cells: HEK (human embryonic kidney) cells expressing hCRTH2; membrane preparation
Sequence (Q9Y5Y4 whole entry): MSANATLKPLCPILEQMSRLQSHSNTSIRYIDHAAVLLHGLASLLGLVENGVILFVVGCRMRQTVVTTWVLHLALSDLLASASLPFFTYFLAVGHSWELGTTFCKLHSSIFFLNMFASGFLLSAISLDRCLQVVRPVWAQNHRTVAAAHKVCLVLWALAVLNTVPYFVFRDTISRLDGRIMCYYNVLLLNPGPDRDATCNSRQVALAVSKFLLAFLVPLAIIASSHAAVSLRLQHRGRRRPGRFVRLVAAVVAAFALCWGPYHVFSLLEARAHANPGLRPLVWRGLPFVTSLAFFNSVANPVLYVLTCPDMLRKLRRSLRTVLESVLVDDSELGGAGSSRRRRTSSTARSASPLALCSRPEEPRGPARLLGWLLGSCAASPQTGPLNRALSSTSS
ASSAY COMMENT: Radioligand binding assay ([3H]PGD2 competition, HEK-hCRTH2 membranes)
TEST CONDITIONS: [3H]PGD2 binding, rated A-E (Table A)
Method: Biological Assays Radioligand Binding Assay. Radioligand binding assays were performed at room temperature in 50 mM Tris-HCl pH 7.4, 1 mM EDTA containing 2 mM MnCl2 and 3.0 nM [^3H]PGD2 (New England Nuclear, Boston, Mass.) (171 Ci mmol^−1), in a final volume of 0.2 mL. […] Total and non-specific binding were determined in the absence and the presence of 10 μM PGD2, respectively. […] The radioactivity was measured with Betaplate model 1205 (Wallac).
pKi: −log10 of the molar value.
REPORTED ENDPOINT: pKi

Please review the entries below; each comes with its answer.
MOLECULE: O=C(O)CCCCc1nc2cc(C(=O)NCc3cccc(Cl)n3)ccc2nc1-c1ccccc1 [15BU]
REPORTED ENDPOINT: pKi
MEASUREMENT: 8.70 to 10.00
//
MOLECULE: O=C(O)Cc1cccc(CCc2nc3cc(C(=O)N4CC(c5ccccc5)C4)ccc3nc2-c2ccc(F)cc2)c1
REPORTED ENDPOINT: pKi
MEASUREMENT: 7.70 to 8.68
//
MOLECULE: CC(CCc1nc2cc(C(=O)N3CCC(c4ccccc4)CC3)ccc2nc1-c1ccc(C(F)(F)F)cc1)CC(=O)O (centres unmarked) [17R]
REPORTED ENDPOINT: pKi
MEASUREMENT: 8.70 to 10.00
//
MOLECULE: COC(=O)c1ccc2nc(-c3ccc(C(F)(F)F)cc3)c(CCCCC(=O)O)nc2c1
REPORTED ENDPOINT: pKi
MEASUREMENT: 7.70 to 8.68
//
MOLECULE: CC(CCc1nc2cc(C(=O)N3CC[C@@H](c4ccccc4)C3)ccc2nc1-c1ccc(C(F)(F)F)cc1)CC(=O)O (some centres unmarked) [17V]
REPORTED ENDPOINT: pKi
MEASUREMENT: 8.70 to 10.00
//
MOLECULE: C[C@@H](NC(=O)c1ccc2nc(-c3ccc(F)cc3)c(CCc3cccc(CC(=O)O)c3)nc2c1)c1ccc(F)cc1
REPORTED ENDPOINT: pKi
MEASUREMENT: 6.70 to 7.70

-- ask In one line, give reported pKi of the entry "C[C@H](NC(=O)c1ccc2nc(-c3ccc(Cl)cc3)c(CCCCC(=O)O)nc2c1)c1cccc(F)c1" .
-- reply 8.70 to 10.00

-- ask In one line, give reported pKi of the entry CCc1ccc(CNC(=O)c2ccc3nc(-c4ccccc4)c(CCCCC(=O)O)nc3c2)cc1 [15AZ] .
-- reply 7.70 to 8.68

Source: patent US9469615B2
